# ASSAY TARGET: DRB1*0405 (Homo sapiens, UniProt P01903+P01911, A100R/A169T/D86S/F76Y/I96L/K127E/L162R/M171V/N62H/P40V/Q125Y/R42H/S133A/S149N/S66Y/V115G/V209L/W38E)
# EXPERIMENT NOTES: biochemical
# Type: binding
No end group written: not given here.
MEASUREMENT NAME: log10 of IC50 (log10 of the value in µM)

- SEQUENCE RECORD: "DICNTMHYTNWTHIY [Peptide 1601.04]"
  log10 of IC50: 0.45
- SEQUENCE RECORD: "IAYYYAQLADSNSNA [Peptide 89.0072]"
  log10 of IC50: 0.69
- SEQUENCE RECORD: "RETIEKLLSKLLCVS [Peptide 89.0006]"
  log10 of IC50: 0.79
- SEQUENCE RECORD: "AKALQAIELQMMLET [Peptide 89.0171]"
  log10 of IC50: -0.10
- SEQUENCE RECORD: "DSEIAYKYAQLADSD [Peptide 89.0051]"
  log10 of IC50: 1.09
- SEQUENCE RECORD: "SEVYDFVFADLRIVY [Peptide 1543.48]"
  log10 of IC50: 0.47
- SEQUENCE RECORD: "TRPRTLHELCEVLEE [Peptide 1543.42]"
  log10 of IC50: -0.17
- SEQUENCE RECORD: "EVHVGGQVIVCPTSI [Peptide 89.0184]"
  log10 of IC50: -0.25
- SEQUENCE RECORD: "ISEVYGDTPEWIQRQ [Peptide 90.0035]"
  log10 of IC50: 1.11
- SEQUENCE RECORD: "EYVLDLYPEPTDLYC [Peptide 1543.12]"
  log10 of IC50: 0.77
- SEQUENCE RECORD: "ELQMALETLSKSQYS [Peptide 89.0183]"
  log10 of IC50: 0.52
- SEQUENCE RECORD: "TPEWIQRQTVLQHSF [Peptide 89.0010]"
  log10 of IC50: -1.77
- SEQUENCE RECORD: "ETCMLIQPPKLRSSV [Peptide 89.0029]"
  log10 of IC50: 0.19
- SEQUENCE RECORD: "DSQIAFQYAQLADVD [Peptide 89.0130]"
  log10 of IC50: 1.00
- SEQUENCE RECORD: "MNYVVWDSIYYITET [Peptide 90.0214]"
  log10 of IC50: -0.34
- SEQUENCE RECORD: "DYVLDLQPEATDLHC [Peptide 1543.10]"
  log10 of IC50: -0.17
- SEQUENCE RECORD: "FQVIELQMALETLSK [Peptide 89.0182]"
  log10 of IC50: -0.63
- SEQUENCE RECORD: "QRFHNIRGRWTGRCM [Peptide 1543.27]"
  log10 of IC50: 0.65
- SEQUENCE RECORD: "NGWFYVEAVVEKKTG [Peptide 90.0029]"
  log10 of IC50: -1.57
- SEQUENCE RECORD: "DRGVLILLLIRFKCG [Peptide 89.0099]"
  log10 of IC50: 0.52
- SEQUENCE RECORD: "KHIRLLECVLMYKARE [Peptide 1601.44]"
  log10 of IC50: -0.63
- SEQUENCE RECORD: "EVHVGGQVIVCPASV [Peptide 90.0015]"
  log10 of IC50: 0.83
- SEQUENCE RECORD: "DFLNTVKIPNTVSVS [Peptide 1601.28]"
  log10 of IC50: 1.07
